From: ChEMBL document CHEMBL2177104

assay: Antiproliferative activity against human HUVEC cells after 72 hrs by methylene blue staining; format: cell-based
Assay metric: GI50 at 72 h

molecule="CCCOCC1COC2(CCN(c3nc(=O)c4cc(C(F)(F)F)cc([N+](=O)[O-])c4s3)CC2)O1 (stereo unspecified)" assay_metric="GI50 at 72 h" test_value="> 50 µM"
molecule=C[C@H]1COC2(CCN(c3nc(=O)c4cc(C(F)(F)F)cc([N+](=O)[O-])c4s3)CC2)O1 assay_metric="GI50 at 72 h" test_value="8 µM"
molecule=CN(C)c1ccc(CN(C)c2nc(=O)c3cc(C(F)(F)F)cc([N+](=O)[O-])c3s2)cc1 assay_metric="GI50 at 72 h" test_value="> 50 µM"

Problem: Name the reported GI50 at 72 h value associated with the molecule COC(=O)C1CN(c2nc(=O)c3cc(C(F)(F)F)cc([N+](=O)[O-])c3s2)CCC12OC[C@H](C)O2 (stereo partly specified)
Result: 16 µM

Problem: Another molecule: `CN(C(=O)CN1CCN(c2nc(=O)c3cc(C(F)(F)F)cc([N+](=O)[O-])c3s2)CC1)c1ccccc1`
Result: 18 µM

Problem: Another molecule to check: `Cc1ccc(CNc2nc(=O)c3cc(C(F)(F)F)cc([N+](=O)[O-])c3s2)n1C`
Result: 17 µM

====

assay: Therapeutic index, ratio of GI50 for human K562 cells to MIC for Mycobacterium smegmatis 700084; format: cell-based; settings: read-out: TI
Assay metric: selectivity ratio

Problem: Quick one: selectivity ratio for `CN(C)c1ccc(CN(C)c2nc(=O)c3cc(C(F)(F)F)cc([N+](=O)[O-])c3s2)cc1` ?
Result: > 50000

Problem: Ok, now `C[C@H]1COC2(CCN(c3nc(=O)c4cc(C(F)(F)F)cc([N+](=O)[O-])c4s3)CC2)O1`
Result: 1190

Problem: Queued: `O=c1nc(N2CCC(c3ccccc3)CC2)sc2c([N+](=O)[O-])cc(C(F)(F)F)cc12`
Result: > 12500

====

assay: Antiproliferative activity against human K562 cells after 72 hrs by electronic cell analysis; assay type: cell-based
Quick reference: GI50 at 72 h of the listed items.
Give the value, in units of µM, as a plain number.

Here are 2 compounds together with their reported answers.
compound=CN(c1nc(=O)c2cc(C(F)(F)F)cc([N+](=O)[O-])c2s1)[C@H]1CCN(Cc2ccccc2)C1 assay_metric="GI50 at 72 h" test_value=30
compound=O=c1nc(NCc2ccc3c(c2)OCCO3)sc2c([N+](=O)[O-])cc(C(F)(F)F)cc12 assay_metric="GI50 at 72 h" test_value=37

Problem: # query: GI50 at 72 h of entry COC(=O)C1CN(c2nc(=O)c3cc(C(F)(F)F)cc([N+](=O)[O-])c3s2)CCC12OC[C@H](C)O2 (stereo partly specified)
Result: 22

====

experiment: Kinetic solubility of the compound at pH 7.4; type: physicochemical; details: buffer, read-out: Kinetic_solubility
Assay metric: log10(solubility kinetic) (log10 of the value in µM)
Scale: decimal log of solubility kinetic, solubility kinetic in µM.

Reference set (4 entries):
smiles_data=CCN(CCN(C)C)c1nc(=O)c2cc(C(F)(F)F)cc([N+](=O)[O-])c2s1 assay_metric="log10(solubility kinetic)" test_value=1.03
smiles_data=CN(C(=O)CN1CCN(c2nc(=O)c3cc(C(F)(F)F)cc([N+](=O)[O-])c3s2)CC1)c1ccccc1 assay_metric="log10(solubility kinetic)" test_value=1.08
smiles_data=O=C(c1ccoc1)N1CCN(c2nc(=O)c3cc(C(F)(F)F)cc([N+](=O)[O-])c3s2)CC1 assay_metric="log10(solubility kinetic)" test_value=1.34
smiles_data=O=c1nc(N2CCC(c3ccccc3)CC2)sc2c([N+](=O)[O-])cc(C(F)(F)F)cc12 assay_metric="log10(solubility kinetic)" test_value=-1.22

Problem: Dear colleague, I am looking for the recorded log10(solubility kinetic) of the following compound: `O=c1nc(NCc2ccco2)sc2c([N+](=O)[O-])cc(C(F)(F)F)cc12`
Result: 0.21

====

assay: Antiproliferative activity against human K562 cells after 72 hrs by electronic cell analysis; type: cell-based
Examples of compounds with documented GI50 at 72 h follow.

smiles_data=CN(C)c1ccc(CN(C)c2nc(=O)c3cc(C(F)(F)F)cc([N+](=O)[O-])c3s2)cc1 test_value="> 50 µM"
smiles_data=O=c1nc(N2CCC(c3ccccc3)CC2)sc2c([N+](=O)[O-])cc(C(F)(F)F)cc12 test_value="> 50 µM"

Let us examine a further case.
Problem: I'd like to know its GI50 at 72 h. The compound in question is `COC(=O)[C@@H]1OC2(CCN(c3nc(=O)c4cc(C(F)(F)F)cc([N+](=O)[O-])c4s3)CC2)O[C@H]1c1ccccc1`
Result: > 50 µM
